Hello, the source for this data is paper PMC9145622, in case you need it.

Answer each item with its documented Ki.
# SYSTEM: hM5 (Homo sapiens)
# Sequence (P08912 whole entry): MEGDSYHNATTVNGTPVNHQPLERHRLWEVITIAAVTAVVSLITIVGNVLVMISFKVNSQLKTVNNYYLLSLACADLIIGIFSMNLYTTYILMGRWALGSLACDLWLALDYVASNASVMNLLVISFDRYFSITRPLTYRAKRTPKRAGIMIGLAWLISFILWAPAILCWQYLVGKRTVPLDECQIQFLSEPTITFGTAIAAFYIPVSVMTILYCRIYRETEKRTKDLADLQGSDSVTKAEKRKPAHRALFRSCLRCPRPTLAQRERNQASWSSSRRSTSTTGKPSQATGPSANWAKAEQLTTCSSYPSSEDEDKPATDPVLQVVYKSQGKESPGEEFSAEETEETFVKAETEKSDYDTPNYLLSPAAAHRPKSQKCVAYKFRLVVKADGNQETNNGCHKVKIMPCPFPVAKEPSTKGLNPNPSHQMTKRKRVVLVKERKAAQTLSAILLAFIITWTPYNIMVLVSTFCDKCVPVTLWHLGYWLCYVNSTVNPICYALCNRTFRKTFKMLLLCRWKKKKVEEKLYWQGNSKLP
# TEST_NAME: Competitive [3H]NMS radioligand binding, CHO-K1 membranes expressing hM5
# CONDITIONS_USED: [3H]NMS, CHO-hM5 cell membrane preparations; read-out: Affinity: Ki ± SD hM5
I'd appreciate it if you included the unit after the number.

Form field Ki for item CN1CCC=C(C(=O)OCC(O)(c2ccccc2)c2ccccc2)C1 on hM5 (Homo sapiens): 284 nM

Form field Ki for item CN1CCC=C(C(=O)OC(c2ccccc2)c2ccc(CO)cc2)C1 (stereo not drawn) [Compound 10c] on hM5 (Homo sapiens): 72 nM

Form field Ki for item CN1CCC=C(C(=O)OCc2ccc(CO)cc2)C1 on hM5 (Homo sapiens): 417 nM

Form field Ki for item CN1CCC=C(C(=O)OC(c2ccccc2)c2cccc(CO)c2)C1 (stereo not drawn) [Compound 10b] on hM5 (Homo sapiens): 49.1 nM

Form field Ki for item CN1CCC=C(C(=O)OCc2cccc(O)c2)C1 [Compound 18b] on hM5 (Homo sapiens): 90 nM

Form field Ki for item CN1CCC=C(C(=O)OC(c2ccccc2)c2cccc(O)c2)C1 (stereo not drawn) [Compound 17b] on hM5 (Homo sapiens): 11 nM
